Biological target: AGO2 T357M (Homo sapiens, UniProt Q9UKV8 1-859, T357M;S387D;S824A;S828D;S831D;S834A)
Sequence (Q9UKV8 whole entry T357M/S387D/S824A/S828D/S831D/S834A): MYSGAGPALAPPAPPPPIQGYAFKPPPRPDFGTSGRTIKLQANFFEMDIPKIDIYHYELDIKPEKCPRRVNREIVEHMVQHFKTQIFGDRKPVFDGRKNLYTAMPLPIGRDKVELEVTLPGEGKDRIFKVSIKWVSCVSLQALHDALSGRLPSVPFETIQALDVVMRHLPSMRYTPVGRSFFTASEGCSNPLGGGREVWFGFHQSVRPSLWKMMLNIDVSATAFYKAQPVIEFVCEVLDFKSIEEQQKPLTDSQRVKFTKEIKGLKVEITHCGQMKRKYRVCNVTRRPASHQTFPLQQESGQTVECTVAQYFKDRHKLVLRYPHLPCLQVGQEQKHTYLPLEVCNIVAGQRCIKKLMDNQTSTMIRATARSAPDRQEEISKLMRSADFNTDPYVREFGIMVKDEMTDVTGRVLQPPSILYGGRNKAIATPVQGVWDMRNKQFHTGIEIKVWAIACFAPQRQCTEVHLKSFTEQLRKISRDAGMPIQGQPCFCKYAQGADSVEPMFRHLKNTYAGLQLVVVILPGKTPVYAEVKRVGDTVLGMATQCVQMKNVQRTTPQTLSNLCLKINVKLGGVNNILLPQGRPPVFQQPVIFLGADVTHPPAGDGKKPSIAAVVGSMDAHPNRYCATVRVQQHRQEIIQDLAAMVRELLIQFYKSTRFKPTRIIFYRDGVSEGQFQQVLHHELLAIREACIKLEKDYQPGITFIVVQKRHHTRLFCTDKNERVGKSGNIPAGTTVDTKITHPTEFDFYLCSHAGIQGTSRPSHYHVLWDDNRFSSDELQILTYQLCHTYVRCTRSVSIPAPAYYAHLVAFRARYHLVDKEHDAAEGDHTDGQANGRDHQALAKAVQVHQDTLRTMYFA
Test: RNA Bind-n-Seq (nitrocellulose filter binding and sequencing); miR-122 guide loaded in AGO2; 60 min incubation; 30 mM Tris pH 8.0, 100 mM potassium acetate, 2 mM magnesium acetate, 0.5 mM TCEP, 0.005% NP-40, 0.01 mg/ml yeast tRNA; 3 nM AGO2-miR-122, 100 nM RNA library; 60; high values mean tight binding
Details: protein: recombinant; tags: His6 (N-terminal, pFastBac HTA)
Each record here notes measured binding signal.

Use the examples below as a reference point.
>  <binder>
ACACTTTG (ssRNA, constant regions annealed to DNA blockers; guide miR-122 5' phosphate) RNA 1: GAGUUCUACAGUCCGACGAUCCCAACACACUUUGCACCUGGAAUUCUCGGGUGCCAA RNA 2: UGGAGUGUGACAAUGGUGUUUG DNA 1: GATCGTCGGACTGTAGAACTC DNA 2: TTGGCACCCGAGAATTCCA

>  <binding signal>
0.494 fold enrichment over input

$$$$
>  <binder>
GTGCTTCA (ssRNA, constant regions annealed to DNA blockers; guide miR-122 5' phosphate) RNA 1: GAGUUCUACAGUCCGACGAUCCCAACGUGCUUCACACCUGGAAUUCUCGGGUGCCAA RNA 2: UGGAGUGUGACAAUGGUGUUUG DNA 1: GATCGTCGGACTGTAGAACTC DNA 2: TTGGCACCCGAGAATTCCA

>  <binding signal>
0.615 fold enrichment over input

$$$$
>  <binder>
GTGTCCTA (ssRNA, constant regions annealed to DNA blockers; guide miR-122 5' phosphate) RNA 1: GAGUUCUACAGUCCGACGAUCCCAACGUGUCCUACACCUGGAAUUCUCGGGUGCCAA RNA 2: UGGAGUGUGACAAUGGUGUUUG DNA 1: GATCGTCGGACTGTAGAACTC DNA 2: TTGGCACCCGAGAATTCCA

>  <binding signal>
0.528 fold enrichment over input

$$$$

State its binding signal: GTGTTTTG (ssRNA, constant regions annealed to DNA blockers; guide miR-122 5' phosphate) RNA 1: GAGUUCUACAGUCCGACGAUCCCAACGUGUUUUGCACCUGGAAUUCUCGGGUGCCAA RNA 2: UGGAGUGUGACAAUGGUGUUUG DNA 1: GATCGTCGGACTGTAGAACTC DNA 2: TTGGCACCCGAGAATTCCA
0.483 fold enrichment over input
